Assay: small-molecule binders of probe aLefty1, primary screen, biochemical, small-molecule microarray, 635/667 nm fluorescence (AID 1153);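 note: score merges spot fluorescence with signal-to-noise ratio from the scanned slide images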
Conditions: higher = more signal
PARAMETER_MEASURED: composite z-score
Numbers only.

Before answering, review these 2 worked examples.
| SMILES_STR | composite z-score |
| --- | --- |
| C=CCOC(=O)[C@H]1[C@@H]2C(=O)O[C@@H](c3ccccc3)[C@@H](c3ccccc3)N2[C@@H](c2ccc(OCCOC(=O)[C@@H]3C[C@@H]4C(=O)N5CCC[C@H]5C(=O)N4[C@@H]3c3ccc(O)cc3)cc2)[C@]12C(=O)Nc1ccccc12 | 0.137 |
| CC(C)C[C@@H]1NC(=O)[C@H]2C[C@@H](C(=O)NCCCCCNC(=O)CS)[C@@H](c3cccc(OCCO)c3)N2C1=O | -0.0511 |

Prompt: What does the record list as composite z-score for `COc1ccc([Si](C)(C)[C@H]2[C@H](CC(=O)N(CCO)Cc3ccccc3)O[C@@]3(C(=O)N(Cc4cccc(N5CCC5=O)c4)c4ccccc43)[C@@H]2C)cc1` ?
Response: 0.356

----------
Experiment: COS7 lysate on small-molecule microarray, probe aHis, 635 nm (AID 1123);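 note: z-score combines 667nm fluorescence intensity with signal-to-noise per printed compound spot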
Settings: COS7 cell lysate, fluorescence, higher = more signal
Recorded composite z-score determines the label; the label ranges are range A (below 1), range B (1 to below 2), range C (2 or more)

| COMPOUND | GROUP |
| --- | --- |
| Cc1cc(C)c(C(O)C2C=CC3C(=O)N(c4ccccc4)C(=O)C3N2Nc2ccc(C#N)cc2)c(C)c1 (centres undefined) | range C |

Prompt: Hi there! Could you help me figure out the category for `COCC(=C=CC[C@@H](O)c1ccc(CO)o1)CCO` please?
Response: range A

Prompt: Could you place `CCOC(=O)C[C@H]1[C@H](OC(=O)c2ccc(-c3ccccc3)cc2)[C@@H](NC(=O)Cc2ccc(OC)cc2)c2cc(OCCCO)ccc2N1C(=O)c1ccc2ccccc2n1` in its proper category? Many thanks.
Response: range B

Prompt: Dear colleague, I would appreciate it if you could identify the bin for `O=C1N(CCS(=O)(=O)c2ccccc2)Cc2ccccc2[C@H]2OC(c3ccc(OCCCO)cc3)=N[C@@]12CCS(=O)(=O)c1ccccc1` and reply at your convenience.
Response: range C

----------
Assay: small-molecule binders of probe aNOTCH2, primary screen, biochemical, small-molecule microarray, 635/667 nm fluorescence (AID 1121);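 note: score merges feature fluorescence read at 667 nm with its signal to noise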
Conditions: higher = more signal
Please go through the items and note down their composite z-score.
Numbers only.

| COMPOUND | composite z-score |
| --- | --- |
| [N-]=[N+]=NCc1ccccc1C[C@@]1(C(=O)N2CCOCC2)N=C(c2ccc(OCCCO)cc2)O[C@@H]1c1ccccc1CN=[N+]=[N-] | 0.266 |
| COc1cccc(C(=O)O[C@H]2CC[C@]3(C)C4=C(CCC3C2(C)C)[C@]2(C)CC[C@H]([C@H](C)CCCC(C)C)[C@@]2(C)CC4)c1 (stereo partly drawn) | -0.132 |
| COc1ccc([Si](C)(C)[C@@H]2[C@@H](CC(=O)N3CCC[C@H]3CO)O[C@]3(C(=O)N(C)c4c(Br)cc(C)cc43)[C@H]2C)cc1 | -0.175 |
| COc1ccc(CCNC(=O)[C@@H]2c3ccccc3C(=O)N(Cc3ccc(OC(F)(F)F)cc3)[C@H]2c2ccc(CO)cc2)cc1 | -0.0029 |
| [N-]=[N+]=NCc1ccccc1[C@@H]1OC(c2ccc(OCCCO)cc2)=N[C@]1(Cc1ccccc1N=[N+]=[N-])C(=O)NCc1ccccc1 | 0.0427 |
| CN(C)CCCNC(=O)[C@@]1(Cc2ccccc2I)c2ccccc2C(=O)N(Cc2ccccc2C(F)(F)F)[C@H]1c1ccc(CO)cc1 | -0.146 |

Items follow; give composite z-score for each.
1. COCCOC(=O)N1C(=O)[C@@]2(c3cc(C#CCNC(N)=O)ccc31)[C@H](c1ccc(O)cc1)N1[C@H](c3ccccc3)[C@H](c3ccccc3)OC(=O)[C@H]1[C@@H]2C(=O)NC[C@H](O)c1ccccc1
2. COC(=O)c1ccc(C(O)C2C=CC3C(=O)N(c4ccccc4)C(=O)C3N2Nc2ccc(C#N)cc2)o1 (stereo not drawn)
3. CO[C@H]1O[C@H](CO)[C@@H](OC(=O)Nc2ccc3c(c2)OCO3)[C@H](OC(=O)Nc2ccccc2)[C@H]1OC(=O)Nc1ccccc1
4. COC(=O)[C@@]1(Cc2ccc(OC)cc2)[C@H]2c3cc(C(=O)N4CCCC4)n(Cc4ccccn4)c3C[C@H]2CN1C(=O)c1ccccc1
5. C=CCOC(=O)[C@@H]1[C@H]2C(=O)O[C@H](c3ccccc3)[C@H](c3ccccc3)N2[C@H](c2ccc(OCCOC(=O)[C@@H]3C[C@@H]4C(=O)NCC(=O)N4[C@@H]3c3cccc(OCCO)c3)cc2)[C@@]12C(=O)Nc1ccc(I)cc12
6. CC(C)C(=C=CC[C@H](O)c1cccc(OCCO)c1)C[C@H](O)COCc1ccccc1
7. COCC(=C=CC[C@H](O)c1ccc(OCCO)cc1)C[C@H](O)c1cc(Cl)cc(Cl)c1O
8. O=C1O[C@H](c2ccccc2)[C@H](c2ccccc2)N2[C@H]1[C@@H](C(=O)O)[C@]1(C(=O)Nc3ccc(C#CC4=CCCCC4)cc31)[C@H]2c1ccc(OCCO)cc1

Response:
-0.0165
-0.0878
-0.102
0.246
-0.0242
-0.0562
-0.122
-0.0523
